# assayTarget: c-KIT VVDV kinase (Homo sapiens, UniProt P10721, D816V/DEL559-560)
# Construct: This construct contains residues T544-V976 of cKit; GST (N); TEV cleavage site (internal); purchased deCODE Biostructures
# Sequence (P10721 with tags, fused parts or gaps DEL559-560/D816V): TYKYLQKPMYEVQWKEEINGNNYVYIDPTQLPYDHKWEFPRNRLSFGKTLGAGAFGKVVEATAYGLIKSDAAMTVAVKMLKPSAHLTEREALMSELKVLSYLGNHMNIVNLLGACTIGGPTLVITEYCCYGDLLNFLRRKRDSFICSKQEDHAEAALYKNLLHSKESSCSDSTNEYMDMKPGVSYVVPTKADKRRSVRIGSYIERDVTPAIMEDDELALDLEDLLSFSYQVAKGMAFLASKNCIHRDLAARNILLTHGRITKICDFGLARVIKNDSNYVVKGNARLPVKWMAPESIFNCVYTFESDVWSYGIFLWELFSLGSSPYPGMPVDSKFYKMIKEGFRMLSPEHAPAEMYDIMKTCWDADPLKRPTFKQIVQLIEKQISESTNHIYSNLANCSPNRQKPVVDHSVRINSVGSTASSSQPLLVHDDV
# procedureText: cKIT-VVDV kinase Assay
# Type: biochemical
# conditionDetails: enzymatic assay; V559+V560 deletions and D816V mutation

molecularString	IC50
CCn1c(=O)c(-c2cc(NC(=O)Nc3ccccc3)c(F)cc2F)cc2cnc(NCCOC)cc21	0.01 to 0.1 µM
CCn1c(=O)c(-c2cc(NC(=O)Nc3csc4ccccc34)c(F)cc2Cl)cc2cnc(NC)cc21	< 0.01 µM
CCn1c(=O)c(-c2cc(NC(=O)Nc3cccc(F)c3)c(F)cc2Br)cc2cnc(NC)cc21	0.1 to 1 µM
CCn1c(=O)c(-c2cc(NC(=O)Nc3cccc4ccccc34)c(F)cc2C)cc2cnc(NC)cc21	0.01 to 0.1 µM
CNc1cc2c(cn1)cc(-c1cc(NC(=O)Nc3csc4ccccc34)c(F)cc1C)c(=O)n2C	< 0.01 µM
CCn1c(=O)c(-c2cc(NC(=O)Nc3cccc(C#N)c3)c(F)cc2F)cc2cnc(NC)cc21	0.01 to 0.1 µM
CCn1c(=O)c(-c2cc(NC(=O)Nc3cccc(F)c3)c(F)cc2C)cc2cnc(NC)cc21	0.01 to 0.1 µM
CCn1c(=O)c(-c2c(Cl)ccc(NC(=O)Nc3ccccc3)c2F)cc2cnc(NC)cc21	> 1 µM
CCn1c(=O)c(-c2cc(NC(=O)Nc3cc(F)cc(F)c3)c(F)cc2Cl)cc2cnc(NC)cc21	0.01 to 0.1 µM
CCn1c(=O)c(-c2cc(NC(=O)Nc3ccccc3)c(F)cc2Cl)cc2cnc(NC)cc21	< 0.01 µM
CCn1c(=O)c(-c2cc(NC(=O)Nc3cccc4ccccc34)c(F)cc2Cl)cc2cnc(NC)cc21	< 0.01 µM

* * *

# assayTarget: UniProtKB P10721
# procedureText: c-KIT kinase Assay
# Assay type: biochemical
# Parameters: cKIT residues T544-V976; GST (N); TEV cleavage site (internal); purchased deCODE Biostructures
# conditionDetails: enzymatic assay, ATP 200 µM; read-out: KIT (wt) IC50
Reported IC50 values for a set of molecules
readoutLabel: IC50

molecule	readoutLabel	reading
CCn1c(=O)c(-c2cc(NC(=O)Nc3cc(F)cc(F)c3)c(F)cc2Cl)cc2cnc(NC(C)=O)cc21 [Example 67]	IC50	10 to 100 nM
CCn1c(=O)c(-c2cc(NC(=O)Nc3ccccc3F)c(F)cc2C)cc2cnc(NC)cc21 [Example 38]	IC50	< 10 nM
CNc1cc2c(cn1)cc(-c1cc(NC(=O)Nc3ccccc3)c(F)cc1Br)c(=O)n2C [Example 56]	IC50	< 10 nM
CCn1c(=O)c(-c2cc(NC(=O)Nc3ccccc3)c(F)cc2Cl)cc2cnc(NC(=O)COC)cc21 [Example 74]	IC50	< 10 nM
CCn1c(=O)c(-c2cc(NC(=O)Nc3csc4ccccc34)c(F)cc2Cl)cc2cnc(NC)cc21 [Example 32]	IC50	< 10 nM
CNc1cc2c(cn1)cc(-c1cc(NC(=O)Nc3ccccc3)c(F)cc1Cl)c(=O)n2C(C)C [Example 22]	IC50	< 10 nM

* * *

# assayTarget: c-KIT D816V kinase (Homo sapiens, UniProt P10721, D816V)
# Construct: residues T544-V976 with N-terminal GST fusion
# Sequence (P10721 544-976 D816V): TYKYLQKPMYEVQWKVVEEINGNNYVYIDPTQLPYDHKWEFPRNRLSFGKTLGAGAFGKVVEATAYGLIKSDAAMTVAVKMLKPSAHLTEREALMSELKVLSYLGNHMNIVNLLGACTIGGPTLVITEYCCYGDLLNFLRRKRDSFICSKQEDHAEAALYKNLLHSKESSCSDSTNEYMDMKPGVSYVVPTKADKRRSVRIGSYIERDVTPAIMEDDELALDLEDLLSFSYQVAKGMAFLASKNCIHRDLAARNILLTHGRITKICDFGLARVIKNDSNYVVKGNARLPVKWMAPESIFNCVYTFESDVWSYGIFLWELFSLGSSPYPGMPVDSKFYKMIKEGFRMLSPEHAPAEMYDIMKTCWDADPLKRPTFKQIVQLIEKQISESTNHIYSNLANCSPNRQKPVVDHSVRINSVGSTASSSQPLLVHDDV
# procedureText: c-KIT D816V kinase Assay
# conditionDetails: enzymatic assay, ATP 200 uM
pIC50: −log10 of the molar value.
Reported pIC50 values for a set of compounds

molecularString	pIC50
CCn1c(=O)c(-c2cc(NC(=O)Nc3cc(F)ccc3F)c(F)cc2C)cc2cnc(NC)cc21	7.00 to 8.00
CCn1c(=O)c(-c2cc(NC(=O)Nc3ccccc3)c(F)cc2C)cc2cnc(NC)cc21	7.00 to 8.00
CCn1c(=O)c(-c2cc(NC(=O)Nc3cc(F)cc(F)c3)c(F)cc2F)cc2cnc(NC)cc21	7.00 to 8.00
CCn1c(=O)c(-c2cc(NC(=O)Nc3ccccc3)c(F)cc2C)cc2cnc(NC(=O)N(C)C)cc21	7.00 to 8.00
CCn1c(=O)c(-c2cc(NC(=O)Nc3cccc(F)c3)c(F)cc2F)cc2cnc(NC)cc21	7.00 to 8.00
CCn1c(=O)c(-c2cc(NC(=O)Nc3ccccc3)c(F)cc2Cl)cc2cnc(N[C@@H](C)COC)cc21	6.00 to 7.00
CNc1cc2c(cn1)cc(-c1cc(NC(=O)Nc3ccccc3)c(F)cc1Cl)c(=O)n2C(C)C	> 8.00

* * *

# assayTarget: c-KIT T670I kinase (Homo sapiens, UniProt P10721, T670I)
# Construct: The construct contains residues T544-V976 of cKit; GST (N); TEV cleavage site (internal)
# Sequence (P10721 544-976 T670I): as the sequence (P10721 544-976 D816V) above, with T127I, V273D counted along it
# procedureText: c-KIT T670I kinase assay
# conditionDetails: enzymatic assay
# Procedure: In this assay, the oxidation of NADH (measured by decrease in absorbance at 340 nm) was continuously monitored spectrophotometrically. […] The inhibition reaction was started by mixing serial diluted test compound with the above reaction mixture. The absorption at 340 nm was monitored continuously for 5 hours at 30 °C on Synergy 2 plate reader (BioTech). […] The protein construct was prepared by deCODE Biostructures using procedures known in the art. […]
Reported IC50 values for a set of compounds
readoutLabel: IC50

molecularString	readoutLabel	reading
CCn1c(=O)c(-c2cc(NC(=O)Nc3csc4ccccc34)c(F)cc2C)cc2cnc(NC)cc21	IC50	10 to 100 nM
CC(C)n1c(=O)c(-c2cc(NC(=O)Nc3ccccc3)c(F)cc2Cl)cc2cnc(NC(=O)N(C)C)cc21	IC50	10 to 100 nM
CCn1c(=O)c(-c2cc(NC(=O)Nc3cccc(F)c3)c(F)cc2Cl)cc2cnc(NC)cc21	IC50	< 10 nM
CCn1c(=O)c(-c2cc(NC(=O)Nc3cccc(C#N)c3)c(F)cc2F)cc2cnc(NC)cc21	IC50	10 to 100 nM
CCn1c(=O)c(-c2cc(NC(=O)Nc3cc(F)cc(F)c3)c(F)cc2F)cc2cnc(NC)cc21	IC50	10 to 100 nM
CCn1c(=O)c(-c2cc(NC(=O)Nc3ccccc3)c(F)cc2F)cc2cnc(NC)cc21	IC50	10 to 100 nM
CCn1c(=O)c(-c2cc(NC(=O)Nc3ccccc3)c(F)cc2Cl)cc2cnc(NCCN(C)C)cc21	IC50	100 to 1000 nM
CCn1c(=O)c(-c2cc(NC(=O)Nc3ccccc3)c(F)cc2Br)cc2cnc(NCCOC)cc21	IC50	> 1000 nM
CCn1c(=O)c(-c2cc(NC(=O)Nc3ccccc3)c(F)cc2Cl)cc2cnc(NC)cc21	IC50	10 to 100 nM

* * *

# assayTarget: c-KIT D816V kinase (Homo sapiens, UniProt P10721, D816V)
# Construct: residues T544-V976 with N-terminal GST fusion
# procedureText: c-KIT D816V kinase Assay
# conditionDetails: enzymatic assay, ATP 200 uM

compound	assayTarget	IC50
CCn1c(=O)c(-c2cc(NC(=O)Nc3ccccc3)c(F)cc2Cl)cc2cnc(NC(=O)N(C)C)cc21 [Example 70]	c-KIT D816V kinase (Homo sapiens, UniProt P10721, D816V)	< 10 nM
CCn1c(=O)c(-c2cc(NC(=O)Nc3ccccc3)c(F)cc2Cl)cc2cnc(NCCCOC)cc21 [Example 39]	c-KIT D816V kinase (Homo sapiens, UniProt P10721, D816V)	10 to 100 nM
CCn1c(=O)c(-c2cc(NC(=O)Nc3ccccc3)c(F)cc2F)cc2cnc(NC(=O)N(C)C)cc21 [Example 112]	c-KIT D816V kinase (Homo sapiens, UniProt P10721, D816V)	10 to 100 nM
CCn1c(=O)c(-c2cc(NC(=O)Nc3ccccc3)c(F)cc2Br)cc2cnc(N)cc21 [Example 57]	c-KIT D816V kinase (Homo sapiens, UniProt P10721, D816V)	100 to 1000 nM
CCn1c(=O)c(-c2cc(NC(=O)Nc3ccccc3)c(F)cc2F)cc2cnc(NC)cc21 [Example 16]	c-KIT D816V kinase (Homo sapiens, UniProt P10721, D816V)	10 to 100 nM
CCn1c(=O)c(-c2cc(NC(=O)Nc3ccccc3)c(F)cc2Cl)cc2cnc(NC(=O)COC)cc21 [Example 74]	c-KIT D816V kinase (Homo sapiens, UniProt P10721, D816V)	< 10 nM

* * *

# assayTarget: c-KIT VVDV kinase (Homo sapiens, UniProt P10721, D816V/DEL559-560)
# Construct: This construct contains residues T544-V976 of cKit; GST (N); TEV cleavage site (internal)
# procedureText: cKIT-VVDV kinase Assay
# conditionDetails: enzymatic assay; V559+V560 deletions and D816V mutation
# Experimental: In this assay, the oxidation of NADH (measured by decrease in absorbance at 340 nm) was continuously monitored spectrophotometrically. […] The inhibition reaction was started by mixing serial diluted test compound with the above reaction mixture. The absorption at 340 nm was monitored continuously for 5 hours at 30 °C on Synergy 2 plate reader (BioTech). […] The protein construct was prepared by deCODE Biostructures using procedures known in the art. […] This construct is identical to Seq ID no.

molecularString	IC50
CCn1c(=O)c(-c2cc(NC(=O)Nc3csc4ccccc34)c(F)cc2F)cc2cnc(NC)cc21	10 to 100 nM
CCn1c(=O)c(-c2cc(NC(=O)Nc3ccccc3)ccc2Cl)cc2cnc(NC)cc21	100 to 1000 nM
CCn1c(=O)c(-c2cc(NC(=O)Nc3cccc(F)c3)c(F)cc2Cl)cc2cnc(N)cc21	< 10 nM
CCn1c(=O)c(-c2cc(NC(=O)Nc3cccc(F)c3)c(F)cc2C)cc2cnc(NC3CC3)cc21	> 1000 nM
CCn1c(=O)c(-c2cc(NC(=O)Nc3ccccc3)c(F)cc2F)cc2cnc(NC)cc21	10 to 100 nM
CNc1cc2c(cn1)cc(-c1cc(NC(=O)Nc3ccccc3)c(F)cc1Cl)c(=O)n2C	10 to 100 nM
CCn1c(=O)c(-c2cc(NC(=O)Nc3cccc(F)c3)c(F)cc2F)cc2cnc(NC)cc21	10 to 100 nM
CCn1c(=O)c(-c2cc(NC(=O)Nc3ccccc3)c(F)cc2Br)cc2cnc(NCCOC)cc21	100 to 1000 nM

Cited source for all entries: patent EP3722296B1
